Origin of values: PubChem BioAssay AID504436

Molecular target: Apelin receptor (Homo sapiens) (UniProt P35414)
Sequence (P35414 whole entry, looked up): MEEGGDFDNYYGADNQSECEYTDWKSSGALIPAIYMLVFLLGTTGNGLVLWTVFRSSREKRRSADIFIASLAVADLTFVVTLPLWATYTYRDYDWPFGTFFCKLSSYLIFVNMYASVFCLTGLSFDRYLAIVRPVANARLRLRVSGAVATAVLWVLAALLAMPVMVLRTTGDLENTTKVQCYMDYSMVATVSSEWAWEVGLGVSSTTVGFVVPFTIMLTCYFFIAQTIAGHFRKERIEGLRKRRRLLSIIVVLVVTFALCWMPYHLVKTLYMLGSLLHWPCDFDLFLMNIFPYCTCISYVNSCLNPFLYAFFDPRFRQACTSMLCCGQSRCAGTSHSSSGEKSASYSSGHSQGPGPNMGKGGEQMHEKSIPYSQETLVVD
Assay: blockers of apelin-13-driven APJ signaling – cell-based, CHO-K1 AGTRL-1, PathHunter luminescence, set 5, SAR follow-up (AID 504436)
Settings: CHO-K1 APJ beta-arrestin PathHunter, antagonist
The source made the active and inactive calls.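 How the source made its calls: active means mean IC50 below 20 µM in the confirmatory beta-arrestin antagonist test; inactive means the rest.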
Pick one and only one: active, inactive

[
  {
    "smiles record": "O=C(Oc1coc(CN2CCOCC2)cc1=O)c1ccc([N+](=O)[O-])cc1",
    "tgt": "Apelin receptor (Homo sapiens) (UniProt P35414)",
    "class": "active"
  },
  {
    "smiles record": "COc1ccc(SCc2cc(=O)c(OC(=O)c3ccc(Cl)c([N+](=O)[O-])c3)co2)cc1",
    "tgt": "Apelin receptor (Homo sapiens) (UniProt P35414)",
    "class": "active"
  }
]

**Q:** Tell me the recorded outcome of this test for `Cc1cc(C)nc(SCc2cc(=O)c(OC(=O)c3ccc(-c4nccs4)cc3)co2)n1` .
**A:** inactive
